- Protocol details: Plasma stability, mouse
- Type: in vitro ADME
- Measurement conditions: male, BALB/C, mouse, mouse plasma; incubation up to 120 min; 3 μM; read-out: plasma stability T1/2, mouse
Quantity: half-life at 3 μM (min)

I = CC(C)(C)COC(=O)CC(F)(F)C(=O)N1N=C(c2c(-c3ccc(Cl)cc3)c3ccccc3[nH]c2=O)CC1c1ccc(Cl)cc1 (stereo not drawn)
II = O=C(CC(F)(F)C(=O)N1N=C(c2c(-c3ccc(Cl)cc3)c3ccccc3[nH]c2=O)CC1c1ccc(Cl)cc1)OCc1ccccc1 (stereo not drawn)
Two entries are listed, I and II . Which one carries the higher half-life at 3 μM? Reply briefly: the label of your chosen item. I
(I: 4 min, II: 1.4 min)

###

- Protocol details: Liver microsome stability, mouse
- Type: in vitro ADME
- Measurement conditions: CD-1, mouse, mouse liver microsomes
Quantity: microsomal CLint at 3 μM (µL/min/mg)

1 = CNC(=O)CC(F)(F)C(=O)N1N=C(c2c(-c3ccc(Cl)cc3)c3ccccc3[nH]c2=O)CC1c1ccc(Cl)cc1 (stereo not shown) [2q]
2 = O=C(CC(F)(F)C(=O)N1N=C(c2c(-c3ccc(Cl)cc3)c3ccccc3[nH]c2=O)CC1c1ccc(Cl)cc1)OCc1ccccc1 (stereo not shown) [2p]
Two entries are listed, 1 and 2 . Which one carries the higher microsomal CLint at 3 μM? Reply briefly: the label of your chosen item. 1

###

- Study target: GluN1/GluN2D (Rattus norvegicus, UniProt Q62645)
- Sequence (Q62645 28-1323, other chains not shown): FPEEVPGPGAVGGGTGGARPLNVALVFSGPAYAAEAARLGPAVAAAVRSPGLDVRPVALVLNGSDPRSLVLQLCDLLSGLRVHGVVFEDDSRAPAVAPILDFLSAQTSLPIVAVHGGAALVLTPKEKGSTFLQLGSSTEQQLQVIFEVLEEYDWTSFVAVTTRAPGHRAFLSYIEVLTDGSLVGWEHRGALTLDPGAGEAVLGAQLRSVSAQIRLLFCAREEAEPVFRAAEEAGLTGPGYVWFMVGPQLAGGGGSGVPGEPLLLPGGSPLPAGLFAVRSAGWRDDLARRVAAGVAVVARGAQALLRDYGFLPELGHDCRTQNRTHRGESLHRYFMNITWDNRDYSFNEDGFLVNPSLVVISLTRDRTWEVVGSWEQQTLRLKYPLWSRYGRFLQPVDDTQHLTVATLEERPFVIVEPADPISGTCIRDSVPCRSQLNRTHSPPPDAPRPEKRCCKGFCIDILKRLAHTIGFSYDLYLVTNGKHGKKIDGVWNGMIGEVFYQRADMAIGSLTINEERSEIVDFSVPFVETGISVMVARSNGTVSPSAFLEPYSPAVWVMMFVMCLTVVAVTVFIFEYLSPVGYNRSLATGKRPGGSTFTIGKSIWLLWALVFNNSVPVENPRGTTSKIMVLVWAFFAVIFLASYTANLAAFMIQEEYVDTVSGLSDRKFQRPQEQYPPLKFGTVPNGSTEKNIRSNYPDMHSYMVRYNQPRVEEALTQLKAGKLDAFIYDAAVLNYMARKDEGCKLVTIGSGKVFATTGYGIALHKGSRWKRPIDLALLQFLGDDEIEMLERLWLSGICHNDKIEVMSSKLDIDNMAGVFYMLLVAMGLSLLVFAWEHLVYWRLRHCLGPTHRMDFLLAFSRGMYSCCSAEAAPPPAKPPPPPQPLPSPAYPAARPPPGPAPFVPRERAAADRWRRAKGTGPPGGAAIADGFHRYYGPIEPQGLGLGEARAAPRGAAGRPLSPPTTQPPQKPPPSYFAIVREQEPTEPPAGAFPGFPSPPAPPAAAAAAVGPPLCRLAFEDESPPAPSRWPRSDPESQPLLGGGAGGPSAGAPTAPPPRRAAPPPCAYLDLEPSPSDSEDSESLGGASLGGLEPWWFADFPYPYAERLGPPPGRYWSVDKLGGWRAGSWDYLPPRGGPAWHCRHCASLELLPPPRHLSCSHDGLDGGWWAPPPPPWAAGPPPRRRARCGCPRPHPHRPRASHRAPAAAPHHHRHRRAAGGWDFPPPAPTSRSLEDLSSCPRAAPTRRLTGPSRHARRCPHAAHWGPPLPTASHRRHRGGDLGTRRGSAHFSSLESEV
- Protocol details: Two-electrode voltage-clamp recordings, Xenopus laevis oocytes, GluN1/GluN2D
- Assay type: cell-based
- Set-up: GluN2B (NM_012574.1), GluN2C (NM_012575.3), and GluN2D (NM_022797.2) were provided by; expressed in transfected cells; host or cells: Xenopus laevis oocytes (cRNA injection)
- Measurement conditions: tested at 10 μM (footnote b); 100 μM glutamate, 30 μM glycine; mean ± SEM
- Method: All target compounds were evaluated for NMDAR antagonism using two-electrode voltage-clamp recordings from Xenopus laevis oocytes coexpressing recombinant GluN1 and GluN2A-D subunits (Table 1).[32],[42],[33] All analogues were assessed as either a racemic (2b, 2e–2r) or diastereomeric (2d) mixture to simplify purification and streamline in vitro analysis. […] Confidence intervals were determined for the log(IC50). […]
Quantity: I / I control GluN2D

For orientation, consider the following solved cases.
CNC(=O)CC(F)(F)C(=O)N1N=C(c2c(-c3ccc(Cl)cc3)c3ccccc3[nH]c2=O)CC1c1ccc(Cl)cc1 (stereo not shown) [2q] = 12 ± 1.5 ^b (3, 18) %
CC(C)(C)COC(=O)CC(F)(F)C(=O)N1N=C(c2c(-c3ccc(Cl)cc3)c3ccccc3[nH]c2=O)CC1c1ccc(Cl)cc1 (stereo not shown) [2o] = 82 ± 0.7%
CN(C)C(=O)CC(F)(F)C(=O)N1N=C(c2c(-c3ccc(Cl)cc3)c3ccccc3[nH]c2=O)CC1c1ccc(Cl)cc1 (stereo not shown) [2r] = 19 ± 1.6 ^b (3,14) %

Now, please, on to the next compound.
Field request: I / I control GluN2D | item: O=C(O)CCCC(=O)N1N=C(c2c(-c3ccc(Cl)cc3)c3ccccc3[nH]c2=O)CC1c1ccc(Cl)cc1 (stereo not shown) [2b] 5.9 ± 1.6 ^b (1,8) %
